// provenance: patent US7169592B2

Overview of reported Relative Activity across a group of compounds:
system: transaminase (intracellular enzyme); assay: Activity of the transaminase (intracellular enzyme) on typical substrates of ω-aminotransferases; type: biochemical, Arthrobacter sp. KNK168; conditions: amino group acceptor 2-ketoglutaric acid; (R)-1-phenylethylamine/pyruvic acid = 100 (control)
Hi! Could you send only the number? It should be in %, unit omitted.

Worked examples follow.
{"compound": "NCCCCN", "Relative Activity [%]": 0}
{"compound": "NCCCC(N)C(=O)O (centres unmarked) [2,5-Diaminovalerate]", "Relative Activity [%]": 2}
{"compound": "NCCCC(=O)O", "Relative Activity [%]": 0}
{"compound": "NC(=O)CCC(N)C(=O)O (racemic)", "Relative Activity [%]": 0}
{"compound": "NCCCC(N)C(=O)O (racemic) [DL-Ornithine]", "Relative Activity [%]": 0}
{"compound": "NCCS(=O)(=O)O", "Relative Activity [%]": 0}
{"compound": "NC(=O)CC(N)C(=O)O (racemic)", "Relative Activity [%]": 0}

## Task Lookup: Relative Activity / transaminase (intracellular enzyme) / NCCCCC(N)C(=O)O (racemic)
## Result 0

====

tested on: purified enzyme protein (transaminase); assay: Reactivity of purified transaminase to carbonyl compounds with (R)-1-phenylethylamine as amino group donor; type: biochemical, Arthrobacter species KNK168; conditions: 25 mM carbonyl compound, 25 mM (R)-1-phenylethylamine, pH 8.5, 30° C.; pyruvic acid = 100
Overview of reported Relative Activity across a group of compounds:
Hi! Could you send only the number? It should be in %, unit omitted.

Worked examples follow.
{"compound": "CC(=O)c1cccnc1 [3-Acetylpyridine]", "tested.target": "purified enzyme protein (transaminase)", "readout.label": "Relative Activity", "readout.value": 8}
{"compound": "CCC(=O)C(=O)O [2-Ketobutyric acid]", "tested.target": "purified enzyme protein (transaminase)", "readout.label": "Relative Activity", "readout.value": 7}
{"compound": "COc1ccc(CCC(C)=O)cc1 [4-(4-Methoxyphenyl)-2-butanone]", "tested.target": "purified enzyme protein (transaminase)", "readout.label": "Relative Activity", "readout.value": 7}
{"compound": "O=CC(=O)O [Glyoxylic acid]", "tested.target": "purified enzyme protein (transaminase)", "readout.label": "Relative Activity", "readout.value": 4}
{"compound": "CC(=O)C(=O)O [Pyruvic acid]", "tested.target": "purified enzyme protein (transaminase)", "readout.label": "Relative Activity", "readout.value": 100}

API: the following record is the query input.
## Task Field request: Relative Activity | item: CC(=O)c1ccco1 [2-Acetylfuran]
## Result 2

====

system: Transaminase of Present Invention (purified enzyme); experiment: Reactivity of purified transaminase to amino compounds (amino group donors) with pyruvic acid as acceptor; format: biochemical, Arthrobacter sp. KNK168; conditions: amino compound 40 mM in substrate solution, pyruvic acid acceptor, pH 8.3, 30° C., 1 hour; (R)-1-phenylethylamine = 100
# note: exactly 40% is not below, so it is Criterion not met; use Criterion met for Relative Activity strictly under it

Use these answered entries as a reference point.
{"compound": "N[C@H](CO)Cc1ccccc1", "answer.label": "Criterion met"}
{"compound": "CC(N)CCc1ccccc1 (centres unmarked)", "answer.label": "Criterion not met"}
{"compound": "N[C@@H](CO)c1ccccc1 [(R)-2-Phenylglycinol]", "answer.label": "Criterion met"}
{"compound": "COc1ccc(C[C@@H](C)N)cc1OC [(R)-DMA]", "answer.label": "Criterion met"}

## Task For this compound, is Relative Activity lower than 40%? "NCc1ccccc1"
## Result Criterion met

## Task For this compound, is Relative Activity lower than 40%? CCCCC(C)CN (centres unmarked)
## Result Criterion met

## Task For this compound, is Relative Activity lower than 40%? CCC(C)N (centres unmarked)
## Result Criterion met

## Task For this compound, is Relative Activity lower than 40%? C[C@H](N)c1ccccc1 [(S)-1-Phenylethylamine]
## Result Criterion met

## Task For this compound, is Relative Activity lower than 40%? N[C@H](CO)c1ccccc1 [(S)-2-Phenylglycinol]
## Result Criterion not met

## Task For this compound, is Relative Activity lower than 40%? C[C@@H](N)c1ccccc1 [(R)-1-Phenylethylamine]
## Result Criterion not met

## Task For this compound, is Relative Activity lower than 40%? CCCCCCC(C)N (centres unmarked)
## Result Criterion not met
